- STUDY_TARGET: PAD4 enzyme (Homo sapiens, UniProt Q9UM07)
- Construct: PAD4 enzyme was diluted to 30 nM in Assay Buffer
- Sequence (Q9UM07 whole entry): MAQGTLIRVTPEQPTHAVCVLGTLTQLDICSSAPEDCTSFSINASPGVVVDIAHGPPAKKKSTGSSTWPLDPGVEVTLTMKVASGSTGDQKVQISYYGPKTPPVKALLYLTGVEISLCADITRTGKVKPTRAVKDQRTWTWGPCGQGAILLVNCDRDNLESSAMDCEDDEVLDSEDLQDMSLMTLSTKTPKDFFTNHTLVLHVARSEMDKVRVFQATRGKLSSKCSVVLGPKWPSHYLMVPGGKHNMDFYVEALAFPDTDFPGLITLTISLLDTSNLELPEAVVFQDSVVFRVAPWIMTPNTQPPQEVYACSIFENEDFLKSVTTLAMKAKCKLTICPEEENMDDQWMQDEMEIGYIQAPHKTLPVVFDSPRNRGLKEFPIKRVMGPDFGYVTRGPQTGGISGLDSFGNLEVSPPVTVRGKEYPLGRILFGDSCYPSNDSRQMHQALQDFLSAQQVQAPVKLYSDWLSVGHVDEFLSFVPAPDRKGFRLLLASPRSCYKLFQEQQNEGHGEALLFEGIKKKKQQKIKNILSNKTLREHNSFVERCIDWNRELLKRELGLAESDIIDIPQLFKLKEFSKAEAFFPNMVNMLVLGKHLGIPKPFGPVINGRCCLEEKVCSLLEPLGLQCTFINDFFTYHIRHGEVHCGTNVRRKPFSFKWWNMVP
- METHOD_DESCRIPTION: In-vitro measurement for enzymatic PAD4 citrullination inhibition activity (ammonia release)
- Format: biochemical
- EXPERIMENTAL_PARAMETERS: read-out: IC50 of inhibition enzymatic activity of PAD4 (Colorimetric assays, Nature Chemical Biology, 2015, 11: 189-191)
pIC50: −log10 of the molar value.
# Lookup of reported pIC50 keyed by entry

Example cases with answers are listed next.
[
  {
    "COMPOUND": "COc1cc(C(=O)N2C[C@H](N)CC[C@@H]2C)cc2nc(-c3cc4[se]c(C5CC5)nc4n3CC3CC3)n(C)c12",
    "STUDY_TARGET": "PAD4 enzyme (Homo sapiens, UniProt Q9UM07)",
    "pIC50": "≥ 7.30"
  },
  {
    "COMPOUND": "COc1cc(C(=O)N2C[C@H]3CC[C@@H]2[C@@H]3N)cc2nc(-c3cc4[se]c(C5CCNCC5)nc4n3CC3CC3)n(C)c12",
    "STUDY_TARGET": "PAD4 enzyme (Homo sapiens, UniProt Q9UM07)",
    "pIC50": "6.30 to 7.00"
  },
  {
    "COMPOUND": "COc1ccc(-c2cc3c(cc(-c4nc5cc(C(=O)N6C[C@H]7CC[C@@H]6[C@@H]7N)cc(OC)c5n4C)n3CC3CC3)[se]2)cc1",
    "STUDY_TARGET": "PAD4 enzyme (Homo sapiens, UniProt Q9UM07)",
    "pIC50": "6.30 to 7.00"
  }
]

Fill in: PAD4 enzyme (Homo sapiens, UniProt Q9UM07) pIC50 for COc1cc(C(=O)N2C[C@H]3CC[C@@H]2[C@@H]3N)cc2nc(-c3cc4[se]c(C5CCCN5)cc4n3CC3CC3)n(C)c12 (stereo partly drawn) = 6.30 to 7.00

Fill in: PAD4 enzyme (Homo sapiens, UniProt Q9UM07) pIC50 for COc1cc(C(=O)N2C[C@H](N)CC[C@@H]2C)cc2nc(-c3cc4[se]c(C5CCNCC5)nc4n3CC3CC3)n(C)c12 = 7.00 to 7.30

Fill in: PAD4 enzyme (Homo sapiens, UniProt Q9UM07) pIC50 for COc1ccc(-c2nc3c(cc(-c4nc5cc(C(=O)N6C[C@H](N)C[C@@H](F)C6)cc(OC)c5n4C)n3CC3CC3)[se]2)cc1 = 6.30 to 7.00

Numbers sourced from patent US20260193272A1.
